All values here come from ChEMBL document CHEMBL4296182.

system: Cryptococcus neoformans; conditions: Concentration 20 uM; ASSAY_TEST Inhibition of Fungal Growth; detection method Resazurin; Absorption (OD600-OD570); plate type 384well; NBS; CORNING #3640
Description: Antifungal activity against Cryptococcus neoformans H99 ATCC 208821 (CO-ADD:FG_002); MIC in YNB media using NBS plates, by Resazurin OD(600-570)
Potency and affinity values are given separately.
Reported Inhibition values for a set of molecules
Report the figure in % without appending any unit label.

Below are worked cases with known answers.
| Molecule | Experimental system | Measured endpoint | Val |
| --- | --- | --- | --- |
| Nc1n[nH]c(-c2ccccc2)n1 | Cryptococcus neoformans | Inhibition | -8.71 |
| CCOc1ccc(NC(=S)NC(=O)c2ccco2)cc1 | Cryptococcus neoformans | Inhibition | -14.9 |
| Clc1ccccc1-c1nc(-c2ccncc2)no1 [PIFEXOLE] | Cryptococcus neoformans | Inhibition | -16.63 |

Prompt: Please give measured Inhibition of the following entry: O=C(O)c1nc2nc(Cl)c(Cl)nc2[nH]1
Completion: -11.32

Prompt: Supply recorded Inhibition for c1ccc(-c2nc(-c3nccc4ccccc34)oc2-c2ccccc2)cc1 here.
Completion: 12.09

Prompt: Provide one value: measured Inhibition of CC1=CC(=O)C(/C(C)=N/c2ccccc2Cl)C(=O)O1 (stereo unspecified)
Completion: 0.4
